TARGET_SYSTEM: human vWF A1 domain (SEQ ID NO 5) (Homo sapiens, UniProt P04275, T1381A)
Sequence (P04275 with tags, fused parts or gaps T1381A): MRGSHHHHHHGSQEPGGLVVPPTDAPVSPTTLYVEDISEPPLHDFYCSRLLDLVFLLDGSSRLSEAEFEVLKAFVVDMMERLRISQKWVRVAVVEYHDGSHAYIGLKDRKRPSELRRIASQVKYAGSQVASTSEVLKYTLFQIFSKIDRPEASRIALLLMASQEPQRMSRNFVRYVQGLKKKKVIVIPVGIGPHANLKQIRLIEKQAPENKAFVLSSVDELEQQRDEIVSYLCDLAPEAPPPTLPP
EXPERIMENTAL_DETAILS: dot blot KD determination, human vWF A1 domain
SETUP_CONDITIONS: read-out: human A1 KD; rRfY aptamers; 8 point titration of human vWF A1 domain
Oligonucleotides are written 5' to 3', each unit as a sugar letter and its base; * is a phosphorothioate linkage, no mark a phosphodiester; rarer units and linkages stand in square brackets, end groups in braces. Plain capitals give the bases only. r = 2'-OH (RNA); f = 2'-fluoro
Friendly reminder: Kd below 600 nM is Met, at or above is Not met.

Just wondering, is Kd of AMX201.G1: rRfY aptamer clone (nucleic acid) rGrGrArGfCrGfCrAfCfUfCrArGfCfCrAfCrGfCfUfCrGrGfUrGrGrGrGrArArAfUfUfUfUrArGfCfCfUrArAfUfUrGrGfCfUrAfCfUfUrGfUrGfCrGfUfUfUfCrGrAfCfCfUfCfUfCfUrGfCfUrArGfC below 600 nM?
Met

Just wondering, is Kd of AMX201.H3: rRfY aptamer clone (nucleic acid) rGrGrArGfCrGfCrAfCfUfCrArGfCfCrAfCfUrArAfCrGrGfUfUrGrAfUfCfUfCrArGrGrAfCfUrArArAfUrArGfUfCrArAfCrArArGrGrAfUrGfCrGfUfUfUfCrGrAfCfCfUfCfUfCfUrGfCfUrArGfC below 600 nM?
Met

Just wondering, is Kd of AMX198.A10: rRfY aptamer clone (nucleic acid) rGrGrArGfCrGfCrAfCfUfCrArGfCfCrAfCfCrArGfUfUrAfUrGfCfUrGrGfCfUfUfUrGrGfUfCfUfUfUrGrAfCfUrGfUfCfUrGrArGfUrGfUfUfCrGfUfUfUfCrGrAfCfCfUfCfUfCfUrGfCfUrArGfC below 600 nM?
Not met

Just wondering, is Kd of AMX198.C10: rRfY aptamer clone (nucleic acid) rGrGrArGfCrGfCrAfCfUfCrArGfCfCrAfCfUrGrGfUfCfCfUfUrArGfCfUrArGfUfUrGfUrAfCfUrArGfCrGrAfCrGfCrGfUfUfCrArGrGfUrGrGfUfUfUfCrGrAfCfCfUfCfUfCfUrGfCfUrArGfC below 600 nM?
Met

Just wondering, is Kd of AMX198.E11: rRfY aptamer clone (nucleic acid) rGrGrArGfCrGfCrAfCfUfCrArGfCfCrAfCrGrGfUrArAfCrAfUfUrGfUfUfUfCfCrGrGfCrGrAfUfUfCfUfUfUrGrArAfCrGfCfCrGfUfCrGfUrGrGfUfUfUfCrGrAfCfCfUfCfUfCfUrGfCfUrArGfC below 600 nM?
Not met

Just wondering, is Kd of AMX201.C8: rRfY aptamer clone (nucleic acid) rGrGrArGfCrGfCrAfCfUfCrArGfCfCrAfCfCfCfUfCrGfCrArArGfCrAfUfUfUfUrArArGrArAfUrGrAfCfUfUrGfUrGfCfCrGfCfUrGrGfCfUrGfUfUfUfUfCrGrAfCfCfUfCfUfCfUrGfCfUrArGfC below 600 nM?
Met

Just wondering, is Kd of AMX201.G9: rRfY aptamer clone (nucleic acid) rGrGrArGfCrGfCrAfCfUfCrArGfCfCrAfCfUrArAfCrGrGfCfUrGrAfUfCfUfCrArGrGrAfCfUrArArAfUrArGfUfCrArAfCrArArGrGrAfUrGfCrGfUfUfUfCrGrAfCfCfUfCfUfCfUrGfCfUrArGfC below 600 nM?
Met
